quantity: melting point

Look over these answered cases.
{"line_notation": "COc1ccc(-c2ccc(C(=O)Nc3ccc4cc(CN5CCCC5)cnc4c3)c(F)c2)cc1", "quantity": "melting point", "obs_value": "174 °C"}
{"line_notation": "N#Cc1ccc(Sc2ccc3cc(Br)ccc3c2)cc1C(F)(F)F", "quantity": "melting point", "obs_value": "114 to 116 °C"}
{"line_notation": "CC(C)(C)c1ccc(N(c2ccccc2)c2ccc(-c3ccc(Nc4ccccc4)cc3)cc2)cc1", "quantity": "melting point", "obs_value": "126 to 127 °C"}

[in] Please indicate melting point recorded for COc1cc2c(c3c1OC(C)(C)C3)C(c1cccc(N(C(N)=O)c3cccnc3)c1)=NC(C)(C)C2
[out] 168 to 169 °C

[in] Please indicate melting point recorded for CCN(CC)c1cc(-c2ccco2)ncn1
[out] 179 to 180 °C

[in] Please indicate melting point recorded for O=C(C=Cc1ccc(Cl)c(Cl)c1)C1C(=O)CCC1=O
[out] 190 to 191 °C

[in] Please indicate melting point recorded for Cc1nc(-c2ccccc2)n(-c2ccc(S(C)(=O)=O)cc2)n1
[out] 118 to 119 °C

[in] Please indicate melting point recorded for NCCCCCCCCCCN1CCN(CC(=O)N2c3ccccc3C(=O)Nc3cccnc32)CC1
[out] 95 to 97 °C

[in] Please indicate melting point recorded for CCCCOc1c(CNC(=O)OC(C)(C)C)n(CC(C)C)c(=O)c2ccc(-c3noc(C)n3)cc12
[out] 152 °C
